Give IC50 for every item shown.
Tested Target: Reg1_301-599 (amino acids 301-599 of human Regnase-1) phosphorylation by IKKβ (Homo sapiens)
Sequence (Q5D1E8 301-599): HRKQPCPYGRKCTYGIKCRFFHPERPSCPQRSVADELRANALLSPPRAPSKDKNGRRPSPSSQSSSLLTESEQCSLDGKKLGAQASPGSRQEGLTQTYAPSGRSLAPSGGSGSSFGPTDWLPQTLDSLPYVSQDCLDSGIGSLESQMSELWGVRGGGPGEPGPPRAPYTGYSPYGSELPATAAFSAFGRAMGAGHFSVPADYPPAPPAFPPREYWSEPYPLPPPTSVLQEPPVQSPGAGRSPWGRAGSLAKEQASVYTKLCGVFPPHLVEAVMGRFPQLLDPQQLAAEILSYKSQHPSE
Residues, ends and D or L forms follow the SMILES beside them.
Report the figure in µM without appending any unit label.

Qu. Request the reported IC50 associated with CC[C@H](C)[C@@H]1NC(=O)[C@H](CCCNC(=N)N)NC(=O)[C@H](Cc2ccc(O)cc2)NC(=O)[C@H](Cc2c[nH]c3ccccc23)NC(=O)[C@H](CO)NC(=O)[C@H](CC(N)=O)NC(=O)[C@H](C)N(C)C(=O)C[C@@H](C(=O)N2CCCC2)NC(=O)[C@H](CC(C)C)NC(=O)CNC(=O)[C@H](Cc2c[nH]c3ccccc23)NC1=O [PP22] (HELM PEPTIDE1{[meA].N.S.W.Y.R.I.W.G.L.D.[C1CCN([*:1])C1]}$PEPTIDE1,PEPTIDE1,1:R1-11:R3$$$V2.0)
Ans. 31

Qu. Request the reported IC50 associated with CC[C@H](C)[C@@H]1NC(=O)[C@H](Cc2c[nH]c3ccccc23)NC(=O)[C@H](CCC(N)=O)NC(=O)[C@H](Cc2ccc(O)cc2)NC(=O)[C@H](C(C)C)NC(=O)[C@H](C)NC(=O)[C@H](Cc2ccc(O)cc2)NC(=O)[C@H](CCCNC(=N)N)NC(=O)[C@H](C)N(C)C(=O)C[C@@H](C(=O)N2CCCC2)NC(=O)[C@@H]2CCCN2C(=O)[C@H](Cc2ccc(O)cc2)NC1=O [PP12] (HELM PEPTIDE1{[meA].R.Y.A.V.Y.Q.W.I.Y.P.D.[C1CCN([*:1])C1]}$PEPTIDE1,PEPTIDE1,1:R1-12:R3$$$V2.0)
Ans. 20.7

Where these numbers come from: patent US20250018014A1
